Reported values of composite z-score for individual entries
Test system: glycogen synthase kinase-3 (GSK3A per assay name; protocol says GSK3B)
Test: compounds binding glycogen synthase kinase-3 – biochemical, small-molecule microarray, 635 nm fluorescence, GSK3A, primary screen (AID 1103); note: the record names both GSK3A and GSK3B
Conditions: fluorescence 635 nm, higher = more signal
Answer with the value's number alone.

See these solved cases before continuing.
| compound | target_or_test_system | composite z-score |
| --- | --- | --- |
| CN(C)CCCNC(=O)[C@@]1(Cc2ccccc2I)c2ccccc2C(=O)N(C2CCCCC2)[C@H]1c1ccc(CO)cc1 | glycogen synthase kinase-3 (GSK3A per assay name; protocol says GSK3B) | 1.03 |
| NC(=O)N1C(=O)C2C(C1=O)C1C=C(CCCO)C2C(C2CC2)N1Cc1sc2ccccc2c1Cl (stereo unspecified) | glycogen synthase kinase-3 (GSK3A per assay name; protocol says GSK3B) | 1.09 |
| CC1=C([C@H](O)CCc2ccccc2)[C@H](CO)n2c(=O)n(-c3ccccc3)c(=O)n2C1 | glycogen synthase kinase-3 (GSK3A per assay name; protocol says GSK3B) | 0.196 |

Task item: # query: composite z-score of entry "O=C1[C@H]2C=C(I)[C@H](C[C@@H]2OCCCCCCO)[C@@]12CO2"
Reply: -0.454

Task item: # query: composite z-score of entry "CC(C)NC(=O)[C@@]1(c2ccc([N+](=O)[O-])cc2)CC(=O)N(CC23CC4CC(CC(C4)C2)C3)[C@@H]1c1ccc(CO)cc1"
Reply: 1.34

Task item: # query: composite z-score of entry "C=CCOC(=O)[C@H]1[C@@H]2C(=O)O[C@@H](c3ccccc3)[C@@H](c3ccccc3)N2[C@@H](c2ccc(OCCOC(=O)[C@@H]3C[C@@H]4C(=O)N[C@@H](CCCC[N+](C)(C)C)C(=O)N4[C@@H]3c3ccc(O)cc3)cc2)[C@]12C(=O)Nc1ccc(I)cc12"
Reply: 1.24
